# measured-target: T1, full-length beta-Catenin (Uniprot ID P35222) (Homo sapiens (Human), UniProt P35222 1-781)
# T1 construct: also called bCat; B-Catenin
# T1 sequence: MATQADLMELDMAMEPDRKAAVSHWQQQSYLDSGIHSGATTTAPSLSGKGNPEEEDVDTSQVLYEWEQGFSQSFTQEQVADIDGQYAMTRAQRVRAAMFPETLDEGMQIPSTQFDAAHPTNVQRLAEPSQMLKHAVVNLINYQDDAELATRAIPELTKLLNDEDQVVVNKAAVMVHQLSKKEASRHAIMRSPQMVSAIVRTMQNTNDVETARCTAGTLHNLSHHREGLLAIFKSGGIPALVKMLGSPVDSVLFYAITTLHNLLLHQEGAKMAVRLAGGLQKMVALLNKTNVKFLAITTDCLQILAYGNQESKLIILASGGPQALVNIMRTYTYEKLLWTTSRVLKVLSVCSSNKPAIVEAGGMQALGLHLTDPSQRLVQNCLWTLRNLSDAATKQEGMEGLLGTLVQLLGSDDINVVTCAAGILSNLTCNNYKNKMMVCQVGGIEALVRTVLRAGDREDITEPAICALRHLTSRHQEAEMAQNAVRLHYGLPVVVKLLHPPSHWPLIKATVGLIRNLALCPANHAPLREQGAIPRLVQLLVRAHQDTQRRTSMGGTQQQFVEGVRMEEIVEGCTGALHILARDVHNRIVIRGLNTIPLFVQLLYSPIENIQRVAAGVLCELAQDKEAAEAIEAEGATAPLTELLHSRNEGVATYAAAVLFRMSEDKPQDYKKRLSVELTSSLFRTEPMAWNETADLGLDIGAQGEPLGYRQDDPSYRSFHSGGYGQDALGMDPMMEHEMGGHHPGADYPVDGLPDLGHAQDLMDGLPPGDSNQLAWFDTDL
# method-description: fluorescence polarization competition; full-length beta-catenin with 5FAM-TCF4(10-53) probe as competitor
Starred links: 1 amine or outer side, 2 acyl side, 3 side chain; linkers in the order of their positions; H or OH if unused. Positions of bridges follow the written chain, without caps; N, C: chain ends. Non-standard residues stand in square brackets, D forms with d. Primed or numbered codes have the meaning given here. B5(4) = 2,2-bis(4-pentenyl)glycine = 2-amino-2-(pent-4-en-1-yl)hept-6-enoic acid (stitching residue), C=CCCCC(CCCC=C)(N[*:1])C(=O)[*:2]; B5″ = 2,2-bis(4-pentenyl)glycine, stitching residue, C=CCCCC(CCCC=C)(N[*:1])C(=O)[*:2]; Bta = N[C@@H](Cc1csc2ccccc12)C(=O)O; αAllylPro = C=CC[C@@]1(C(=O)O)CCCN1; S8 = C=CCCCCCC[C@](C)(N)C(=O)O; NMeS = CN[C@@H](CO)C(=O)O
measure-name: pIC50
// pIC50 here means minus log10 of the molar concentration (mol/L)

Data point: Ac-[αAllylPro]DL[B5(4)]DEAAFN[S8]F[Bta][dS]-NH2 (staple 1-4, 4-11, Stapled peptide; also called Ac-PL3-Asp-Leu-B5-Asp-Glu-Ala-Ala-Phe-Asn-S8-Phe-BztA-dSer-NH2) [I-756] ; pIC50 = 7.25

// XDLXDEAAFNXFXT (not fully specified; Ac-PL3-Asp-Leu-B5-Asp-Glu-Ala-Ala-Phe-Asn-S8-Phe-BztA-dThr-NH2: N-terminal acetyl; C-terminal amide; PL3 at 1, B5 at 4, S8 at 11 (stapled 1-4 and 4-11 by olefin metathesis); BztA at 13; D-Thr at 14, Stapled peptide; also called Ac-PL3-Asp-Leu-B5-Asp-Glu-Ala-Ala-Phe-Asn-S8-Phe-BztA-dThr-NH2) [I-754] : pIC50 value = 6.94

For reference, reported pIC50 for Ac-[αAllylPro]DL[B5″]DEAAFN[S8]F[Bta][NMeS]-NH2 (staple 1-4, 4-11, Stapled peptide; also called Ac-PL3-Asp-Leu-B5-Asp-Glu-Ala-Ala-Phe-Asn-S8-Phe-BztA-NMeS-NH2) [I-760] stands at 6.22
